# assay.system: WIZ (Homo sapiens, UniProt O95785+Q96SW2)
# Construct: HUDEP-2 cells engineered to express a HiBiT tag in either the WIZ (Widely interspaced zinc finger) or ZBTB7A
# Sequence (O95785 whole entry): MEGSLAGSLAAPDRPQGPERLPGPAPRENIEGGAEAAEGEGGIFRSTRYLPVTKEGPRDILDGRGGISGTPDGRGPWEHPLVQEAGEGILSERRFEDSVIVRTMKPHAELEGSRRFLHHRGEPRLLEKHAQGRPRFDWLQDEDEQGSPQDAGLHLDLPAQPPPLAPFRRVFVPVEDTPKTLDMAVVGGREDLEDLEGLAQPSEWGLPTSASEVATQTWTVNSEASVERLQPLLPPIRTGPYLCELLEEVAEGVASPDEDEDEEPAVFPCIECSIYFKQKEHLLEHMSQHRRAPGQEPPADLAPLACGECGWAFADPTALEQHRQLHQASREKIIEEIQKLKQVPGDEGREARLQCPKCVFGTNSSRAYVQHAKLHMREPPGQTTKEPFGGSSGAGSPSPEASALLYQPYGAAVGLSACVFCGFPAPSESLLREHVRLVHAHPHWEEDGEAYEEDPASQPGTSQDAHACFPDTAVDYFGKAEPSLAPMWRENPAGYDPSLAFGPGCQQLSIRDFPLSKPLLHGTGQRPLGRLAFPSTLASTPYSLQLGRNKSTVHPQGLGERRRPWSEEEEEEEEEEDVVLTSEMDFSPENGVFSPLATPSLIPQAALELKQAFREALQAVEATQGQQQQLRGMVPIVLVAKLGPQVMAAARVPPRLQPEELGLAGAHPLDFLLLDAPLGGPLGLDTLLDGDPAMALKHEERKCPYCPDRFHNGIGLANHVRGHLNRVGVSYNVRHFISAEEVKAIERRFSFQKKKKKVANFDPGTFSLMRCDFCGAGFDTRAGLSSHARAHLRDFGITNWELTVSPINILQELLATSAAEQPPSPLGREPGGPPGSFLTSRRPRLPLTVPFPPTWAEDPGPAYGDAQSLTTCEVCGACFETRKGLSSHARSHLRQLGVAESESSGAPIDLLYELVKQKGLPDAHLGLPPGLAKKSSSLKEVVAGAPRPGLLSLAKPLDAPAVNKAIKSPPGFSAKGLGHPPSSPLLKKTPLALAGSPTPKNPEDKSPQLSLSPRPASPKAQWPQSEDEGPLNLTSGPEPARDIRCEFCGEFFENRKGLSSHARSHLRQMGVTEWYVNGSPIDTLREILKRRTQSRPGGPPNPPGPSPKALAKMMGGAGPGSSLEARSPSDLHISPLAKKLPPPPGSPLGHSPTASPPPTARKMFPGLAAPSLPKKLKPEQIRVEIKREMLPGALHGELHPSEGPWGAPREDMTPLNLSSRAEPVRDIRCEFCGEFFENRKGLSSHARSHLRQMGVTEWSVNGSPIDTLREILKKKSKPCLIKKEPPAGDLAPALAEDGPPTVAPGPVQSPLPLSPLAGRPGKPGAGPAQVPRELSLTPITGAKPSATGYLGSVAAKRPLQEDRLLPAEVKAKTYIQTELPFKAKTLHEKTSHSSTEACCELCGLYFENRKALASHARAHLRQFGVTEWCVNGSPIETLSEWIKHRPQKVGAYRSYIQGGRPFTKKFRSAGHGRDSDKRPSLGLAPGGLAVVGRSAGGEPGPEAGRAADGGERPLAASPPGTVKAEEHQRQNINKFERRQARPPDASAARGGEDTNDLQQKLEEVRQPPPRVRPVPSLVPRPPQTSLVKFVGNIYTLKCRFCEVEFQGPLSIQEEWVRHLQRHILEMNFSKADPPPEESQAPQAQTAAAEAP
# Sequence (Q96SW2 whole entry): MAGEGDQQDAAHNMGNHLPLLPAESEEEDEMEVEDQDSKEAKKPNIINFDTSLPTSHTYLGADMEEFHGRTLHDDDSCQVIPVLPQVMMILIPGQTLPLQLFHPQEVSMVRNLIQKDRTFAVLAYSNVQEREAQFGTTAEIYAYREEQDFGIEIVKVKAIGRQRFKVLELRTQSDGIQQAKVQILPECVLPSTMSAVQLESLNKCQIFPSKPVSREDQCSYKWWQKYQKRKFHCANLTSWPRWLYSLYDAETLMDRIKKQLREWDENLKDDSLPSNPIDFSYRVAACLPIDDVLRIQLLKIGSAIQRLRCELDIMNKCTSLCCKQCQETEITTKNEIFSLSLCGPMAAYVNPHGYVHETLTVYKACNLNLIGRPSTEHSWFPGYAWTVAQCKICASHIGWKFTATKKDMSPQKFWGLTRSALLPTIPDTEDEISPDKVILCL
# Sequence (Q16531 whole entry partner): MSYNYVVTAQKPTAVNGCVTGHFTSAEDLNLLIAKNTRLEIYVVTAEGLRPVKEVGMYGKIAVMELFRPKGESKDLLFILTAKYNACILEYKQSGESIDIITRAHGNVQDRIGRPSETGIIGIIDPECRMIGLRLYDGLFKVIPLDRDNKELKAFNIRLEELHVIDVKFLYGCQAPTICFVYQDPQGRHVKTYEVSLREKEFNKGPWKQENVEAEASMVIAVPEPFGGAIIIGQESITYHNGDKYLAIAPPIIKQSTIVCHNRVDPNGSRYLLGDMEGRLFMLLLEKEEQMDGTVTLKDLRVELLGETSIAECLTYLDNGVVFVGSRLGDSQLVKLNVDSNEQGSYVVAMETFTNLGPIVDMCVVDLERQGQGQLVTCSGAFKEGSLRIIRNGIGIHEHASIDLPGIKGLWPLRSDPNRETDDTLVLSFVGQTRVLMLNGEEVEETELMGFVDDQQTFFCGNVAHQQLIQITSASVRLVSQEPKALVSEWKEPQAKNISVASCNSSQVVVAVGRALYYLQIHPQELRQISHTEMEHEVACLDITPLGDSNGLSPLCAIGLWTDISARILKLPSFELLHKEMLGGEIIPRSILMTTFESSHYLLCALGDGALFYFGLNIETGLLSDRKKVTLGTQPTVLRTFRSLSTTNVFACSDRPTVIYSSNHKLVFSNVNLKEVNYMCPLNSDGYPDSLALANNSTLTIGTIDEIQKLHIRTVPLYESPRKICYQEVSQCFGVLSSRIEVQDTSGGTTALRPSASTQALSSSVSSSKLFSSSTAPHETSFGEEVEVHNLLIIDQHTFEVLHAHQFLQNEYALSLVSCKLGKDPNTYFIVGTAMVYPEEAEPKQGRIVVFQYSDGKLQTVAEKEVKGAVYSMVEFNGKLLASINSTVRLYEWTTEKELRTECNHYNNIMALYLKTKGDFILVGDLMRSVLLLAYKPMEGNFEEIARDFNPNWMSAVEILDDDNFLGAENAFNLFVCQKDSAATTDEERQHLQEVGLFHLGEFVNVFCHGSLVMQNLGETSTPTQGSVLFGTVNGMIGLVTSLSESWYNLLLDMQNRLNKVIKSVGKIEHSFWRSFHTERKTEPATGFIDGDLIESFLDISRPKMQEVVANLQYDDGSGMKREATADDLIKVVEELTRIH
# test.description: HUDEP-2 WIZ HiBiT degradation assay
# Type: cell-based
# condition.notes: HiBiT-tagged WIZ degradation in HUDEP-2 cells, 24 hours of treatment; read-out: WIZ EC50
Binary call on DC50 with cut-off 10 nM: strictly below means true (1), and equality or higher means false (0).

* Cc1cc(-c2cc3c(cc2Nc2cccc4c2C(=O)N(C2CCC(=O)NC2=O)C4=O)N(C)C(=O)CO3)ccn1 (stereo not drawn) | true (1)
* CCO[C@H]1CC[C@H](c2cc3c(cc2Nc2cccc4c2C(=O)N([C@@H]2CCC(=O)NC2=O)C4=O)N(C)C(=O)[C@@H](C)O3)CC1 | true (1)
* COc1cc(-c2cc3c(cc2Nc2cccc4c2C(=O)N([C@H]2CCC(=O)NC2=O)C4=O)N(C)C(=O)[C@@H](C)O3)c(F)cn1 | false (0)
* CCN1C(=O)CCc2cc(-c3ccnc(C)c3)c(Nc3cccc4c3C(=O)N([C@H]3CCC(=O)NC3=O)C4=O)cc21 | false (0)
* Cc1cc(-c2cc3c(cc2Nc2cccc4c2C(=O)N(C2CCC(=O)NC2=O)C4=O)N(C)C(=O)CO3)cc(C2CC2)n1 (stereo not drawn) | false (0)
* Cc1cc(-c2cc3c(cc2Nc2cccc4c2C(=O)N([C@H]2CCC(=O)NC2=O)C4=O)N(C)C(=O)CO3)cc(C)n1 | false (0)
* COc1nccc(-c2cc3c(cc2Nc2cccc4c2C(=O)N([C@H]2CCC(=O)NC2=O)C4=O)N(C)C(=O)[C@@H](C)O3)c1F | false (0)
* Cc1cc(-c2cc3c(cc2Nc2cccc4c2C(=O)N([C@H]2CCC(=O)NC2=O)C4=O)N(C)C(=O)CO3)c(F)cn1 [Compound 7] | true (1)
* Cc1cc(-c2cc3c(cc2Nc2cccc4c2C(=O)N([C@H]2CCC(=O)NC2=O)C4=O)N(C)C(=O)O[C@H]3C)c(F)cn1 | false (0)
* Cc1cc(-c2cc3c(cc2Nc2cccc4c2C(=O)N(C2CCC(=O)NC2=O)C4=O)N(C)C(=O)CO3)cc(F)c1F (stereo not drawn) | false (0)
* Cc1cc(-c2cc3c(cc2Nc2cccc4c2C(=O)N([C@H]2CCC(=O)NC2=O)C4=O)N(C)C(=O)OC3)ccn1 | false (0)
* COc1ccc(-c2cc3c(cc2Nc2cccc4c2C(=O)N([C@H]2CCC(=O)NC2=O)C4=O)N(C)C(=O)[C@H](C)O3)cn1 | false (0)

====

# assay.system: ZBTB7A (Homo sapiens, UniProt O95365+Q96SW2)
# Construct: HUDEP-2 cells engineered to express a HiBiT tag in either the WIZ (Widely interspaced zinc finger) or ZBTB7A
# Sequence (O95365 whole entry): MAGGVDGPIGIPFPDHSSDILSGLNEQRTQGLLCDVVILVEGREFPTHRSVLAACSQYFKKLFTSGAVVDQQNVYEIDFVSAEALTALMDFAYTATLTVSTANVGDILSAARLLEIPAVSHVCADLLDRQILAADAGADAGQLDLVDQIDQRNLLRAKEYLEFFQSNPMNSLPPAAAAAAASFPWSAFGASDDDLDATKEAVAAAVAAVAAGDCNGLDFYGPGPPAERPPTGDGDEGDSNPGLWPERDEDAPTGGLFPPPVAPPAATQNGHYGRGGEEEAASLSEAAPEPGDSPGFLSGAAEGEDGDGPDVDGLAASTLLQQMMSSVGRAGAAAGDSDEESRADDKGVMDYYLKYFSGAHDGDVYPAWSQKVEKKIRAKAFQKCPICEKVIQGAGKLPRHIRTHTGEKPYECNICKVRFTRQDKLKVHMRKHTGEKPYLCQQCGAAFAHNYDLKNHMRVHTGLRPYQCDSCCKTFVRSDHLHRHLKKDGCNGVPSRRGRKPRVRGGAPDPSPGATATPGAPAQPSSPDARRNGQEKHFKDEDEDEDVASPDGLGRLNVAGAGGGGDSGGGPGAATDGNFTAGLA
# Sequence (Q96SW2 whole entry): as the sequence (Q96SW2 whole entry) above
# Sequence (Q16531 whole entry partner): as the sequence (Q16531 whole entry partner) above
# test.description: HUDEP-2 ZBTB7A HiBiT degradation assay
# Type: cell-based
# condition.notes: HiBiT-tagged ZBTB7A degradation in HUDEP-2 cells, 24 hours of treatment; read-out: ZBTB7A EC50
Binary call on DC50 with cut-off 20 nM: strictly below means true, and equality or higher means false.

- Cc1cc(-c2cc3c(cc2Nc2cccc4c2C(=O)N([C@@H]2CCC(=O)NC2=O)C4=O)N(C)C(=O)OC3)ccn1: false
- Cc1cc(-c2cc3c(cc2Nc2cccc4c2C(=O)N([C@H]2CCC(=O)NC2=O)C4=O)N(C)C(=O)O[C@H]3C)c(F)cn1: true
- Cc1cc(-c2c(Nc3cccc4c3C(=O)N(C3CCC(=O)NC3=O)C4=O)cc3c(c2F)OCC(=O)N3C)cc(C(F)F)n1 (stereo not drawn) [Compound 78]: false
- Cc1cc(-c2cc3c(cc2Nc2cccc4c2C(=O)N([C@H]2CCC(=O)NC2=O)C4=O)N(C)C(=O)OC3C)ccn1 (stereo partly drawn): true
- Cc1cc(-c2cc3c(cc2Nc2cccc4c2C(=O)N(C2CCC(=O)NC2=O)C4=O)N(C)C(=O)CC3(C)C)ccn1 (stereo not drawn): true
- CN1C(=O)COc2cc(-c3ccnc(C(F)F)c3)c(Nc3cccc4c3C(=O)N([C@H]3CCC(=O)NC3=O)C4=O)cc21: false

====

# assay.system: WIZ (Homo sapiens, UniProt O95785+Q96SW2)
# Construct: HUDEP-2 cells engineered to express a HiBiT tag in either the WIZ (Widely interspaced zinc finger) or ZBTB7A
# test.description: HUDEP-2 WIZ HiBiT degradation assay
# Type: cell-based
# condition.notes: HiBiT-tagged WIZ degradation in HUDEP-2 cells, 24 hours of treatment; read-out: WIZ EC50
quantity.name: DC50 (nM)

• C=CN1C(=O)CCc2cc(-c3ccnc(C)c3)c(Nc3cccc4c3C(=O)N(C3CCC(=O)NC3=O)C4=O)cc21 (stereo not shown) = 17
• CCOc1nccc(-c2cc3c(cc2Nc2cccc4c2C(=O)N(C2CCC(=O)NC2=O)C4=O)N(C)C(=O)CO3)c1C (stereo not shown) = 12
• Cc1cc(-c2cc3c(cc2Nc2cccc4c2C(=O)N([C@H]2CCC(=O)NC2=O)C4=O)N(C)C(=O)O[C@@H]3C)c(F)cn1 = 11
• Cc1cc(-c2cc3c(cc2Nc2cccc4c2C(=O)N(C2CCC(=O)NC2=O)C4=O)N(C)C(=S)CC3)ccn1 (stereo not shown) = 28

====

# assay.system: ZBTB7A (Homo sapiens, UniProt O95365+Q96SW2)
# Construct: HUDEP-2 cells engineered to express a HiBiT tag in either the WIZ (Widely interspaced zinc finger) or ZBTB7A
# test.description: HUDEP-2 ZBTB7A HiBiT degradation assay
# Type: cell-based
# condition.notes: HiBiT-tagged ZBTB7A degradation in HUDEP-2 cells, 24 hours of treatment; read-out: ZBTB7A EC50
quantity.name: log10 of DC50 (log10 of the value in µM)

• COc1cc(-c2cc3c(cc2Nc2cccc4c2C(=O)N([C@H]2CCC(=O)NC2=O)C4=O)N(C)C(=O)CO3)c(F)cn1 [Compound 28] = -1.89
• Cc1cc(-c2cc3c(cc2Nc2cccc4c2C(=O)N(C2CCC(=O)NC2=O)C4=O)N(C)C(=O)OC3)cc(C)n1 (stereo not drawn) [Compound 62] = -1.72
• Cc1cc(-c2cc3c(cc2Nc2cccc4c2C(=O)N([C@H]2CCC(=O)NC2=O)C4=O)N(C)C(=O)[C@@H](C)O3)cc(C)n1 [Compound 24] = -1.59
• COc1ccc(-c2cc3c(cc2Nc2cccc4c2C(=O)N([C@H]2CCC(=O)NC2=O)C4=O)N(C)C(=O)O[C@H]3C)cc1F [Compound 71] = -2.00
• CCOc1cc(-c2cc3c(cc2Nc2cccc4c2C(=O)N(C2CCC(=O)NC2=O)C4=O)N(C)C(=O)CO3)ccn1 (stereo not drawn) [Compound 52] = -0.84
• CCN1C(=O)CCc2cc(-c3ccnc(C)c3)c(Nc3cccc4c3C(=O)N([C@H]3CCC(=O)NC3=O)C4=O)cc21 [Compound 89] = -1.89

====

Listed below: DC50 values for each entry.
# assay.system: WIZ (Homo sapiens, UniProt O95785+Q96SW2)
# Construct: HUDEP-2 cells engineered to express a HiBiT tag in either the WIZ (Widely interspaced zinc finger) or ZBTB7A
# test.description: HUDEP-2 WIZ HiBiT degradation assay
# Format: cell-based
# condition.notes: HiBiT-tagged WIZ degradation in HUDEP-2 cells, 24 hours of treatment; read-out: WIZ EC50
quantity.name: DC50 (nM)

- Cc1cc(-c2cc3c(cc2Nc2cccc4c2C(=O)N([C@H]2CCC(=O)NC2=O)C4=O)N(C)C(=O)CO3)cc(N)n1: 12
- Cc1cncc(-c2cc3c(cc2Nc2cccc4c2C(=O)N([C@H]2CCC(=O)NC2=O)C4=O)N(C)C(=O)[C@@H](C)O3)c1: 9
- COc1ccc(-c2cc3c(cc2Nc2cccc4c2C(=O)N([C@H]2CCC(=O)NC2=O)C4=O)N(C)C(=O)[C@@H](C)O3)cn1: 13

====

# assay.system: ZBTB7A (Homo sapiens, UniProt O95365+Q96SW2)
# Construct: HUDEP-2 cells engineered to express a HiBiT tag in either the WIZ (Widely interspaced zinc finger) or ZBTB7A
# test.description: HUDEP-2 ZBTB7A HiBiT degradation assay
# Assay type: cell-based
# condition.notes: HiBiT-tagged ZBTB7A degradation in HUDEP-2 cells, 24 hours of treatment; read-out: ZBTB7A EC50
Binary call on DC50 with cut-off 0.04 µM: strictly below means 1, and equality or higher means 0.

* COc1nccc(-c2cc3c(cc2Nc2cccc4c2C(=O)N([C@H]2CCC(=O)NC2=O)C4=O)N(C)C(=O)[C@@H](C)O3)c1F | 1
* CC(=O)N1CCC(c2cc3c(cc2Nc2cccc4c2C(=O)N([C@H]2CCC(=O)NC2=O)C4=O)N(C)C(=O)[C@H](C)O3)CC1 | 1
* Cc1cc(-c2cc3c(cc2Nc2cccc4c2C(=O)N([C@H]2CCC(=O)NC2=O)C4=O)N(C)C(=O)[C@H](C)O3)ccn1 | 1
* Cc1cc(-c2cc3c(cc2Nc2cccc4c2C(=O)N([C@H]2CCC(=O)NC2=O)C4=O)N(C)C(=O)O[C@H]3C)ccn1 | 1
* Cc1cc(-c2cc3c(cc2Nc2cccc4c2C(=O)N([C@H]2CCC(=O)NC2=O)C4=O)N(C)C(=O)[C@@H](C)O3)ccn1 | 0
* CC(=O)N1CCC(c2cc3c(cc2Nc2cccc4c2C(=O)N(C2CCC(=O)NC2=O)C4=O)N(C)C(=O)CC3)CC1 (stereo not drawn) | 1
* COc1nccc(-c2cc3c(cc2Nc2cccc4c2C(=O)N([C@H]2CCC(=O)NC2=O)C4=O)N(C)C(=O)CO3)c1F | 1
* Cc1cc(-c2cc3c(cc2Nc2cccc4c2C(=O)N(C2CCC(=O)NC2=O)C4=O)N(C)C(=O)CO3)cc(F)c1F (stereo not drawn) | 1
* Cc1cc(-c2cc3c(cc2Nc2cccc4c2C(=O)N([C@H]2CCC(=O)NC2=O)C4=O)N(C2CC2)C(=O)CC3)ccn1 | 0
